# protocol.description: Rat pharmacokinetics, i.v. bolus
# Assay type: in vivo, Sprague-Dawley rats
# stated.conditions: rat, in vivo, iv, 45 mg/kg, male Sprague-Dawley rats, single 45 mg/kg slow i.v. bolus, plasma, LC-MS/MS, noncompartmental, n = 3 to 5/dose
Starred links: 1 amine or outer side, 2 acyl side, 3 side chain; linkers in the order of their positions; H or OH if unused. Positions of bridges follow the written chain, without caps; N, C: chain ends. Non-standard residues stand in square brackets, D forms with d. Residues, ends and D or L forms follow the SMILES beside them. *: point of attachment. Orn(4R-OH,5R-OCH2CH2NMe3+) = C[N+](C)(C)CCO[C@@H](N[*:3])[C@H](O)C[C@H](N[*:1])C(=O)[*:2]; pTerphenylCO(4''-OnC5H11) = CCCCCOc1ccc(-c2ccc(-c3ccc(C(=O)*)cc3)cc2)cc1; hTyr(3S-OH,4S-OH) = N[C@H](C(=O)O)[C@H](O)[C@@H](O)c1ccc(O)cc1; Pro(3S-OH,4S-Me) = C[C@H]1CN[C@H](C(=O)O)[C@H]1O; Hyp = O=C(O)[C@@H]1C[C@@H](O)CN1
value.kind: half-life (h)
One number for each entry, in h.

Read off the recorded half-life for CCCCCOc1ccc(-c2ccc(-c3ccc(C(=O)N[C@H]4C[C@@H](O)[C@@H](OCC[N+](C)(C)C)NC(=O)[C@@H]5[C@@H](O)[C@@H](C)CN5C(=O)[C@H]([C@@H](C)O)NC(=O)[C@H]([C@H](O)[C@@H](O)c5ccc(O)cc5)NC(=O)[C@@H]5C[C@@H](O)CN5C(=O)[C@H]([C@@H](C)O)NC4=O)cc3)cc2)cc1 [CD101] ({pTerphenylCO(4''-OnC5H11)}-[Orn(4R-OH,5R-OCH2CH2NMe3+)]T[Hyp][hTyr(3S-OH,4S-OH)]T[Pro(3S-OH,4S-Me)]; lactam 1-C)
44.5

###

# protocol.description: Cynomolgus monkey pharmacokinetics, i.v. bolus
# Set-up: species or system cynomolgus monkeys
# stated.conditions: in vivo, iv, male cynomolgus monkeys, single 2.13 mg/kg slow i.v. bolus, plasma, LC-MS/MS, noncompartmental, n = 3
Starred links: 1 amine or outer side, 2 acyl side, 3 side chain; linkers in the order of their positions; H or OH if unused. Positions of bridges follow the written chain, without caps; N, C: chain ends. Non-standard residues stand in square brackets, D forms with d. Residues, ends and D or L forms follow the SMILES beside them. *: point of attachment. Orn(4R-OH,5R-OCH2CH2NMe3+) = C[N+](C)(C)CCO[C@@H](N[*:3])[C@H](O)C[C@H](N[*:1])C(=O)[*:2]; pTerphenylCO(4''-OnC5H11) = CCCCCOc1ccc(-c2ccc(-c3ccc(C(=O)*)cc3)cc2)cc1; hTyr(3S-OH,4S-OH) = N[C@H](C(=O)O)[C@H](O)[C@@H](O)c1ccc(O)cc1; Pro(3S-OH,4S-Me) = C[C@H]1CN[C@H](C(=O)O)[C@H]1O; Hyp = O=C(O)[C@@H]1C[C@@H](O)CN1
value.kind: Cmax (ng/mL)
Numbers only, in ng/mL.

Read off the recorded Cmax for CCCCCOc1ccc(-c2ccc(-c3ccc(C(=O)N[C@H]4C[C@@H](O)[C@@H](OCC[N+](C)(C)C)NC(=O)[C@@H]5[C@@H](O)[C@@H](C)CN5C(=O)[C@H]([C@@H](C)O)NC(=O)[C@H]([C@H](O)[C@@H](O)c5ccc(O)cc5)NC(=O)[C@@H]5C[C@@H](O)CN5C(=O)[C@H]([C@@H](C)O)NC4=O)cc3)cc2)cc1 [CD101] ({pTerphenylCO(4''-OnC5H11)}-[Orn(4R-OH,5R-OCH2CH2NMe3+)]T[Hyp][hTyr(3S-OH,4S-OH)]T[Pro(3S-OH,4S-Me)]; lactam 1-C)
9070
